B1: Tektin-4 (Homo sapiens), Q8WW24 (parent)
chain: MAQTVPPCELPCKEYDVARNTGAYTSSGLATASFRTSKYLLEEWFQNCYARYHQAFADRDQSERQRHESQQLATETQALAQRTQQDSTRTVGERLQDTHSWKSELQREMEALAAETNLLLAQKQRLERALDATEVPFSITTDNLQCRERREHPNLVRDHVETELLKEAELIRNIQELLKRTIMQAVSQIRLNREHKETCEMDWSDKMEAYNIDETCGRHHSQSTEVQAHPYSTTFQESASTPETRAKFTQDNLCRAQRERLASANLRVLVDCILRDTSEDLRLQCDAVNLAFGRRCEELEDARYKLHHHLHKTLREITDQEHNVAALKQAIKDKEAPLHVAQTRLYLRSHRPNMELCRDAAQFRLLSEVEELNMSLTALREKLLEAEQSLRNLEDIHMSLEKDIAAMTNSLFIDRQKCMAHRTRYPTILQLAGYQ
partner: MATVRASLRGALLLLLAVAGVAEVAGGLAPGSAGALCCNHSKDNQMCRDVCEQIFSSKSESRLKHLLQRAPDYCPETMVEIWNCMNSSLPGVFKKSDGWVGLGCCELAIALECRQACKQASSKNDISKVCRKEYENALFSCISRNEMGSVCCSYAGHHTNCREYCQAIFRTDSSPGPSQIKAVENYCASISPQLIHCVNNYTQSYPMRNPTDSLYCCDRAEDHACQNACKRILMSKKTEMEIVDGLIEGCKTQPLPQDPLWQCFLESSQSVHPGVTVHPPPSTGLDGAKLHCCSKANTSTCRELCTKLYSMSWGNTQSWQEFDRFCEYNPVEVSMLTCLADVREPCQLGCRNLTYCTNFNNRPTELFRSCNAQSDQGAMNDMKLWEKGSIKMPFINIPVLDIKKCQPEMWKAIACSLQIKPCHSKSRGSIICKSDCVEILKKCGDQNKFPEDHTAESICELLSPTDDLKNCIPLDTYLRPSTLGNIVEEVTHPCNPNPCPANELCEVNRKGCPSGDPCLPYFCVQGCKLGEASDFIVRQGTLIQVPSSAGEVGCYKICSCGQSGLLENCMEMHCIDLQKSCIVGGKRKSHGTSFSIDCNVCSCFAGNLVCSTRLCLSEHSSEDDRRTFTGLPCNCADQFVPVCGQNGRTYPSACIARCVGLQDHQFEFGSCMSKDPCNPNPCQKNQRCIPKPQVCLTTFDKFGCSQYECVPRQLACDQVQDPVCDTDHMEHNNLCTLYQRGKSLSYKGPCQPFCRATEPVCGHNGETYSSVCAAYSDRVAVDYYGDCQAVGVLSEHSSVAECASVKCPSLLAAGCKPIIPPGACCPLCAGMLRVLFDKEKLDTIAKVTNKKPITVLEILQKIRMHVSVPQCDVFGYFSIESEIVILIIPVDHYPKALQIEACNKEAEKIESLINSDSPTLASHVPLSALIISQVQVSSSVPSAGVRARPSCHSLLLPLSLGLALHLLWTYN

Variants of: B1
Details: with reck_human RECK
property: effect of a mutation on the interaction

Here is how some variants turned out for effect of a mutation on the interaction.
[[record]]
mutant = "M374V"
property = "effect of a mutation on the interaction"
recorded_measurement = "with no effect"

[[record]]
mutant = "R82C"
property = "effect of a mutation on the interaction"
recorded_measurement = "with no effect"

[[record]]
mutant = "R64W"
property = "effect of a mutation on the interaction"
recorded_measurement = "with no effect"

[[record]]
mutant = "A80V"
property = "effect of a mutation on the interaction"
recorded_measurement = "with no effect"

[[record]]
mutant = "C272S"
property = "effect of a mutation on the interaction"
recorded_measurement = "with no effect"


Problem: I would be grateful if you could share the reported effect of a mutation on the interaction for S100G .
Solution: with no effect

Problem: // query: D403N
Solution: with no effect

Problem: // query: R255C
Solution: with no effect

Problem: // query: M374T
Solution: with no effect
